Consider the following compounds and their measured normalized growth readings.
test: chemical genetic growth profiling, strain panel (AID 1159580);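 also: tested at 20 µM; growth read once vehicle control cultures reached saturation at 30 °C; 1 = growth at the plate median or of vehicle wells; lower values mean less growth of the strain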; conditions: S. cerevisiae deletion strains, growth OD, locus YDR001C, strain nth1, active compounds read low
Among all 5,500 compounds or so, about 2,000 (36%) were called active. About 18% were inconclusive and are not listed. The list shows a part of the results.
attributeMeasured: normalized growth

>  <compound>
CC(=O)C1CC[C@H]2C3CC[C@H]4C[C@H](O)CC[C@]4(C)C3CC[C@]12C (stereo not given in full)

>  <experimentalValue>
1.01

$$$$
>  <compound>
COc1cc(NS(C)(=O)=O)ccc1Cc1c2ccccc2nc2ccccc12

>  <experimentalValue>
0.999

$$$$
>  <compound>
CN(C)CCC(c1ccccc1)c1ccccn1 (stereo not given)

>  <experimentalValue>
1.01

$$$$
>  <compound>
CC(=O)C1CCC2C3CCC4C[C@H](O)CCC4(C)C3C[C@H](O)C12C (stereo not given in full)

>  <experimentalValue>
0.956

$$$$
>  <compound>
FC(F)(F)c1cccc(N2CCNCC2)c1

>  <experimentalValue>
1.01

$$$$
